Values compiled from ChEMBL document CHEMBL1156001.

Assay: Intrinsic clearance in rat liver microsomes after 10 to 45 mins by LCMS/MS analysis
Format: ADME, Microsome
reported.endpoint: microsomal CLint

                                   compound  reported_endpoint       data_value
0  CC1(CC(=O)NCCNc2ccnc3cc(Cl)ccc23)CC2(CCCCC2)OO1 (stereo unspecified)   microsomal CLint  > 119 µL/min/mg

====

Test: Octanol-PBS partition coefficient, log D at […] at pH 7.4
Assay type: physicochemical
Each record here notes measured logD.
reported.endpoint: logD

                                    compound  reported_endpoint  comparison_operator  data_value
 0  CC1(CC(=O)NCc2ccc(Br)cc2F)CC2(CCCCC2)OO1 (stereo not drawn)               logD                    =         4.1
 1  CC1(CC(=O)NCc2ccncc2)CC2(CCCCC2)OO1 (stereo not drawn)               logD                    =         2.1
 2  CCOc1ccccc1CNC(=O)CC1(C)CC2(CCCCC2)OO1 (stereo not drawn)               logD                    =         3.1
 3  CC1(CC(=O)NCc2ccccn2)CC2(CCCCC2)OO1 (stereo not drawn)               logD                    =         2.3
 4  CC1(CC(=O)NCc2ccccc2N2CCCCC2)CC2(CCCCC2)OO1 (stereo not drawn)               logD                    >         3.5
 5  CC1(CC(=O)NCc2ccc(-c3ccc(F)cc3)cc2)CC2(CCCCC2)OO1 (stereo not drawn)               logD                    =         4.8
 6  COc1cc(CNC(=O)CC2(C)CC3(CCCCC3)OO2)cc(OC)c1OC (stereo not drawn)               logD                    =         2.3
 7  Cc1cc(Cl)ccc1CNC(=O)CC1(C)CC2(CCCCC2)OO1 (stereo not drawn)               logD                    =         4.2
 8  CC1(CC(=O)NCc2ccc(N3CCOCC3)cc2)CC2(CCCCC2)OO1 (stereo not drawn)               logD                    =         2.7
 9  CC1(CC(=O)NCc2cccc(I)c2)CC2(CCCCC2)OO1 (stereo not drawn)               logD                    =         3.5
10  CC1(CC(=O)NCc2ccc(Oc3cc(C(F)(F)F)cc(C(F)(F)F)c3)cc2)CC2(CCCCC2)OO1 (stereo not drawn)               logD                    =         3.2
11  CC1(CC(=O)NCc2ccc(C(=O)O)cc2)CC2(CCCCC2)OO1 (stereo not drawn)               logD                    =         0.3
12  CC1(CC(=O)NCc2ccc(OC(F)(F)F)cc2)CC2(CCCCC2)OO1 (stereo not drawn)               logD                    =         3.2

====

List of logD values.
Assay: Octanol-PBS partition coefficient, log D at […] at pH 7.4
Assay type: physicochemical
reported.endpoint: logD

In [3]: df
Out[3]:
                                   molecule  reported_endpoint  comparison_operator  data_value
0  CC1(CC(=O)NCc2ccc3c(c2)OCCO3)CC2(CCCCC2)OO1 (stereo unspecified)               logD                    =         2.7
1  CN(C)c1ccc(CNC(=O)CC2(C)CC3(CCCCC3)OO2)cc1 (stereo unspecified)               logD                    =         3.1
2  CC1(CC(=O)NCc2ccc(Oc3ccc(F)cc3)cc2)CC2(CCCCC2)OO1 (stereo unspecified)               logD                    >         3.5
3  CC1(CC(=O)NCc2ccccc2OC(F)(F)F)CC2(CCCCC2)OO1 (stereo unspecified)               logD                    =         3.3
4  COc1cccc(CNC(=O)CC2(C)CC3(CCCCC3)OO2)c1 (stereo unspecified)               logD                    =         3.1
5  CC1(CC(=O)NCc2ccc(OC(F)F)cc2)CC2(CCCCC2)OO1 (stereo unspecified)               logD                    =         3.1

====

Assay: Intrinsic clearance in human liver microsomes after 10 to 45 mins by LCMS/MS analysis
Assay type: ADME, Microsome
reported.endpoint: microsomal CLint

>>> df
                                   compound      data_value
0  CC1(CC(=O)NCCNc2ccnc3cc(Cl)ccc23)CC2(CCCCC2)OO1 (stereo unspecified)  > 72 µL/min/mg

====

Assay: Membrane permeability at […] at pH 6.5 to 7.4 after 4 hrs by PAMPA
Assay type: ADME
Details: read-out: permeability
Catalogue of Papp at 4 h values
reported.endpoint: Papp at 4 h (×10⁻⁶ cm/s)

In [3]: df
Out[3]:
                                    compound  data_value
 0  CC1(CC(=O)NCc2ccc([N+](=O)[O-])cc2)CC2(CCCCC2)OO1 (configuration not stated)          49
 1  CC1(CC(=O)NCc2ccccc2N2CCCCC2)CC2(CCCCC2)OO1 (configuration not stated)          62
 2  COc1cc(CNC(=O)CC2(C)CC3(CCCCC3)OO2)cc(OC)c1 (configuration not stated)          55
 3  COC(=O)c1ccc(CNC(=O)CC2(C)CC3(CCCCC3)OO2)cc1 (configuration not stated)          57
 4  CSc1ccc(CNC(=O)CC2(C)CC3(CCCCC3)OO2)cc1 (configuration not stated)          97
 5  CN(C)c1ccc(CNC(=O)CC2(C)CC3(CCCCC3)OO2)cc1 (configuration not stated)          90
 6  CC1(CC(=O)NCc2ccc(-n3cccc3)cc2)CC2(CCCCC2)OO1 (configuration not stated)          70
 7  CCOc1ccccc1CNC(=O)CC1(C)CC2(CCCCC2)OO1 (configuration not stated)          74
 8  CC1(CC(=O)NCc2ccncc2)CC2(CCCCC2)OO1 (configuration not stated)          18
 9  CC1(CC(=O)NCc2ccc3c(c2)OCC=CO3)CC2(CCCCC2)OO1 (configuration not stated)          55
10  CC1(CC(=O)NCc2ccccc2Sc2ccccc2CO)CC2(CCCCC2)OO1 (configuration not stated)          77
11  CC1(CC(=O)NCc2ccccn2)CC2(CCCCC2)OO1 (configuration not stated)          33
12  COc1cccc(CNC(=O)CC2(C)CC3(CCCCC3)OO2)c1 (configuration not stated)          65
13  CC1(CC(=O)NCc2ccccc2N)CC2(CCCCC2)OO1 (configuration not stated)          37
14  COc1cc(CNC(=O)CC2(C)CC3(CCCCC3)OO2)cc(OC)c1OC (configuration not stated)          54
15  CC1(CC(=O)NCc2ccc3c(c2)OCCO3)CC2(CCCCC2)OO1 (configuration not stated)          56
16  CC1(CC(=O)NCCNc2ccnc3cc(Cl)ccc23)CC2(CCCCC2)OO1 (configuration not stated)          66

====

Test: Octanol-PBS partition coefficient, log D at […] at pH 7.4
Type: physicochemical
reported.endpoint: logD

>>> print(df.to_string())
                                    molecule  data_value
 0  COC(=O)c1ccc(CNC(=O)CC2(C)CC3(CCCCC3)OO2)cc1 (configuration not stated)         3.4
 1  CC1(CC(=O)NCc2cccc(Cl)c2Cl)CC2(CCCCC2)OO1 (configuration not stated)         3.4
 2  CC1(CC(=O)NCc2cccc(C(F)(F)F)c2)CC2(CCCCC2)OO1 (configuration not stated)           4
 3  CC(C)(C)OC(=O)Nc1cccc(CCNC(=O)CC2(C)CC3(CCCCC3)OO2)c1 (configuration not stated)           3
 4  CC1(CC(=O)NCc2ccc(-c3cccs3)cc2)CC2(CCCCC2)OO1 (configuration not stated)         3.7
 5  CC1(CC(=O)NCc2ccc(Cl)cc2Cl)CC2(CCCCC2)OO1 (configuration not stated)       > 3.5
 6  CC1(CC(=O)NCc2ccccc2N)CC2(CCCCC2)OO1 (configuration not stated)         2.5
 7  CC1(CC(=O)NCc2ccc(S(N)(=O)=O)cc2)CC2(CCCCC2)OO1 (configuration not stated)         1.4
 8  CC1(CC(=O)NCc2ccc3c(c2)OCC3)CC2(CCCCC2)OO1 (configuration not stated)         2.8
 9  CC1(CC(=O)NCc2cccc(-c3ccccc3)c2)CC2(CCCCC2)OO1 (configuration not stated)         3.8
10  COc1cc(CNC(=O)CC2(C)CC3(CCCCC3)OO2)cc(OC)c1 (configuration not stated)         3.3
11  CC1(CC(=O)NCc2ccc3c(c2)OCC=CO3)CC2(CCCCC2)OO1 (configuration not stated)         3.1
12  CC1(CC(=O)NCCNc2ccnc3cc(Cl)ccc23)CC2(CCCCC2)OO1 (configuration not stated)         3.4
13  CC1(CC(=O)NCc2ccccc2Sc2ccccc2CO)CC2(CCCCC2)OO1 (configuration not stated)         4.3
14  CC1(CC(=O)NCc2ccc(-n3cccc3)cc2)CC2(CCCCC2)OO1 (configuration not stated)         4.3
15  CC1(CC(=O)NCc2cccc(Oc3ccc(Cl)cc3)c2)CC2(CCCCC2)OO1 (configuration not stated)         3.2
16  CSc1ccc(CNC(=O)CC2(C)CC3(CCCCC3)OO2)cc1 (configuration not stated)         3.7
17  CC1(CC(=O)NCc2ccc(C(C)(C)C)cc2)CC2(CCCCC2)OO1 (configuration not stated)         3.5
18  CC1(CC(=O)NCc2ccc(-c3cc(Cl)cc(Cl)c3)cc2)CC2(CCCCC2)OO1 (configuration not stated)       > 3.5
19  CC1(CC(=O)NCc2cccc(Br)c2)CC2(CCCCC2)OO1 (configuration not stated)         3.3
20  CC1(CC(=O)NCc2cccc(Cl)c2)CC2(CCCCC2)OO1 (configuration not stated)         3.7
21  CC1(CC(=O)NCc2ccc([N+](=O)[O-])cc2)CC2(CCCCC2)OO1 (configuration not stated)         3.4
